# ASSAY_NOTES: Drug metabolism in Sprague-Dawley rat hepatocytes assessed as parent compound level at 1 uM after 3 hrs by radio-chromatogram analysis
# Assay type: ADME, cell-based, Hepatocyte
# CONDITION_INFO: read-out: Drug metabolism

{"STRUCTURE_SMILES": "Fc1ccc([C@@H]2CCNC[C@H]2COc2ccc3c(c2)OCO3)cc1.O=C(O)/C=C\\C(=O)O", "remaining at 3 h, 1 µM": "29.7%"}

###

# ASSAY_NOTES: Drug metabolism in human hepatocytes assessed as parent compound level at 1 uM after 3 hrs by radio-chromatogram analysis
# Format: ADME, cell-based, Hepatocyte
# CONDITION_INFO: read-out: Drug metabolism
PROPERTY_LABEL: remaining at 3 h, 1 µM (%)

{"STRUCTURE_SMILES": "Fc1ccc([C@@H]2CCNC[C@H]2COc2ccc3c(c2)OCO3)cc1.O=C(O)/C=C\\C(=O)O", "PROPERTY_LABEL": "remaining at 3 h, 1 µM", "UNIT_OF_MEASURE": "%", "RECORDED_MEASUREMENT": 71.4}
